System: HGGX6 (H3.3 G34R paediatric high-grade glioma line)
Assay: growth inhibition (% activity, log2 RLU normalised to DMSO / staurosporine); higher = more growth inhibition
Settings: 33 µM
Could you please report measured growth inhibition for the items listed next?
One number for each entry, in %.

compound	studyTarget	readout	unit	assayResult
CCN1CCN(C(=O)N[C@@H](C(=O)N[C@@H]2C(=O)N3[C@@H]2SC(C)(C)[C@@H]3C(=O)O)c2ccccc2)C(=O)C1=O	HGGX6	growth inhibition	%	0.186

Below are some compounds; for each one, tell me its growth inhibition.
1. NC(CO)C(=O)NNCc1ccc(O)c(O)c1O (stereo not given)
2. Cc1ccc(C(=O)c2cc(O)c(O)c([N+](=O)[O-])c2)cc1

Ans:
2.73
-3.36

Value sought for every listed compound: growth inhibition.
1. C=CC[C@@H]1/C=C(\C)C[C@H](C)C[C@H](OC)[C@H]2O[C@@](O)(C(=O)C(=O)N3CCCC[C@H]3C(=O)O[C@H](/C(C)=C/[C@@H]3CC[C@@H](O)[C@H](OC)C3)[C@H](C)[C@@H](O)CC1=O)[C@H](C)C[C@@H]2OC
2. CN1C(C(=O)Nc2ccccn2)=C(O)c2sccc2S1(=O)=O
3. Cc1ccnc2c1NC(=O)c1cccnc1N2C1CC1
4. Nc1ccn(C[C@@H](CO)OCP(=O)(O)O)c(=O)n1
5. Nc1ccn([C@H]2CC[C@@H](CO)O2)c(=O)n1
6. CCOC(=O)[C@H](CCc1ccccc1)N[C@@H](C)C(=O)N1Cc2ccccc2C[C@H]1C(=O)O

Ans:
1: 3.03; 2: 0.485; 3: -1.94; 4: -0.434; 5: 1.48; 6: 3.4

For each entry beneath this line, provide reported growth inhibition.
1. CC(C)NCC(O)COc1cccc2ccccc12 (stereo not given)
2. Cc1cc(C(C)(C)C)cc(C)c1CC1=NCCN1
3. CC(C)c1nc(N(C)S(C)(=O)=O)nc(-c2ccc(F)cc2)c1C=CC(O)CC(O)CC(=O)O (stereo not given)
4. Clc1ccc(COC(Cn2ccnc2)c2ccc(Cl)cc2Cl)cc1 (stereo not given)
5. CCN(CC)CCOC(=O)c1ccc(N)cc1
6. CCOc1nc2cccc(C(=O)O)c2n1Cc1ccc(-c2ccccc2-c2nnn[nH]2)cc1

Ans:
1. 0.0936
2. -4.11
3. 15.9
4. 8.25
5. 0.874
6. 1.65

Required: growth inhibition, one value per compound below.
1. O=C([O-])C(O)[C@H](O)[C@@H](O)[C@H](O)[C@H](O)CO.O=C([O-])C(O)[C@H](O)[C@@H](O)[C@H](O)[C@H](O)CO.[Ca+2] (stereo not given in full)
2. O=C1C(=O)c2ccccc2C(O)=C1C1CCC(c2ccc(Cl)cc2)CC1 (stereo not given)
3. Clc1ccc(C(Cn2ccnc2)OCc2c(Cl)cccc2Cl)c(Cl)c1 (stereo not given)
4. Clc1ccc2nsnc2c1NC1=NCCN1

Ans:
[1.87, 0.641, 5.87, -1.61]

Q: What measured growth inhibition goes with CCCNC(C)C(=O)Nc1c(C)csc1C(=O)OC (stereo not given) ?
Ans: 1.44
